Each recorded value in this set is attributed to paper PMC8243516.

target-system: LPLA2 (Mus musculus, UniProt Q8VEB4)
Construct: purchased Proteos Inc. (Kalamazoo, MI)
Sequence (Q8VEB4 34-412): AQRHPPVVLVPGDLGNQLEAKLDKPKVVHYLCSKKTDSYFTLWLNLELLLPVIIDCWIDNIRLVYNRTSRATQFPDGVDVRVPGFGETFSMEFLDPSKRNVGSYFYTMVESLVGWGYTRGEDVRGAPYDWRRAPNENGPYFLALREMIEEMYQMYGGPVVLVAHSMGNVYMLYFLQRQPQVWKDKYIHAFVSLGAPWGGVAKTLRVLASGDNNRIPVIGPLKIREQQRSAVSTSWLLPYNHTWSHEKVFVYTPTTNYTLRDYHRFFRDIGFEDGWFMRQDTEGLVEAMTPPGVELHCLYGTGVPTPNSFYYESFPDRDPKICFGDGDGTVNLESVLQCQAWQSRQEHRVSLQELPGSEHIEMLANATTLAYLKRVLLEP
test-details: LPLA2 thermal stability measurement (SYPRO Orange Tm)
Type: binding
protocol-conditions: N=3 ± SD
metric-name: (ΔTm)c-(ΔTm)d, difference in melting temperature of LPLA2 alone or in the presence of drug (°C)

# molecule, experimental-value
data = [
    ("O=C(O)[C@@H]1C[C@@H](C2CCCCC2)CN1C(=O)CP(=O)(O)CCCCc1ccccc1 [Fosinoprilat]", -1.45),
    ("CN(C)CCCN1c2ccccc2Sc2ccc(Cl)cc21 [Chlorpromazine]", -2.1),
    ("CCOc1ccc(NC(C)=O)cc1 [Phenacetin, N-(4-ethoxyphenyl) acetamide]", -2.30),
    ("O=C(O)Cc1ccccc1Nc1c(Cl)cccc1Cl [Diclofenac]", 1.70),
    ("O=C(COc1ccc(Cl)cc1)N1CCN(Cc2ccc3c(c2)OCO3)CC1 [Fipexide]", -0.17),
    ("CNCCCN1c2ccccc2CCc2ccccc21 [Desipramine]", 1.60),
    ("CC(=O)N1CCN(c2ccc(OCC3COC(Cn4ccnc4)(c4ccc(Cl)cc4Cl)O3)cc2)CC1 (centres unmarked) [Ketoconazole]", 0.42),
    ("CC(C)COCC(CN(Cc1ccccc1)c1ccccc1)N1CCCC1 (centres unmarked) [bepridil]", 2.10),
    ("C[C@]12CCC(=O)C=C1CC[C@@H]1[C@@H]2[C@@H](O)C[C@@]2(C)[C@H]1CC[C@]2(O)C(=O)CO [Hydrocortisone]", 1.11),
    ("CCC(C)(C)c1ccc(CC(C)CN2C[C@@H](C)O[C@@H](C)C2)cc1 (some centres unmarked) [Amorolfine]", -0.30),
    ("CN(Cc1cc(Br)cc(Br)c1N)C1CCCCC1.Cl [Bromhexine]", 1.26),
    ("NCCc1cc(O)c(O)cc1O [6-Hydroxydopamine]", -0.14),
    ("CC(CN1c2ccccc2Sc2ccccc21)N(C)C (centres unmarked) [Promethazine]", 1.45),
    ("CC(C)Cn1cnc2c(N)nc3ccccc3c21 [Imiquimod]", 0.66),
    ("CC1=C(/C=C/C(C)=C/C=C/C(C)=C/CO)C(C)(C)CCC1 [Retinol]", 0.81),
    ("O=C(NC1CCN(CCc2c[nH]c3ccccc23)CC1)c1ccccc1 [Indoramin]", 1.08),
    ("O=C1NC(=O)C(c2ccccc2)(c2ccccc2)N1 [Phenytoin]", 0.13),
    ("Cc1ccc(C(=O)Nc2ccc(S(=O)(=O)O)c3cc(S(=O)(=O)O)cc(S(=O)(=O)O)c23)cc1NC(=O)c1cccc(NC(=O)Nc2cccc(C(=O)Nc3cc(C(=O)Nc4ccc(S(=O)(=O)O)c5cc(S(=O)(=O)O)cc(S(=O)(=O)O)c45)ccc3C)c2)c1 [Suramin]", 0),
    ("CCCOc1ccc(C(=O)OCCN(CC)CC)cc1N [Proparacaine]", 0),
    ("C[C@]12CC[C@@H]3c4ccc(O)cc4C[C@@H](CCCCCCCCC[S+]([O-])CCCC(F)(F)C(F)(F)F)[C@H]3[C@@H]1CC[C@@H]2O (some centres unmarked) [Fulvestrant]", -1.05),
]
